Tested on: Plasmodium falciparum
Assay: Antiplasmodial activity against chloroquinone-resistant Plasmodium falciparum W2
Format: functional, organism-based
measured.endpoint: IC50 (µM)
Kindly answer with a numeric value in µM, unit omitted.

structure.string: ClC(Cl)(Cl)c1nc(-c2ccco2)c2ccccc2n1
tested.system: Plasmodium falciparum
scale.unit: µM
IC50: 20.2
//
structure.string: Clc1ccc(-c2nc(C(Cl)(Cl)Cl)nc3ccccc23)cc1
tested.system: Plasmodium falciparum
scale.unit: µM
IC50: 4.7
//
structure.string: FC(F)(F)c1cccc(-c2nc(C(Cl)(Cl)Cl)nc3ccccc23)c1
tested.system: Plasmodium falciparum
scale.unit: µM
IC50: 40.4
//
structure.string: Cc1ccc(-c2nc(C(Cl)(Cl)Cl)nc3ccccc23)s1
tested.system: Plasmodium falciparum
scale.unit: µM
IC50: 8.7

Continue with the next molecule.
According to the records, this molecule COc1cc(-c2nc(C(Cl)(Cl)Cl)nc3ccccc23)cc(OC)c1OC displays IC50 of 28.9
